- method.summary: Permeability of the compound assessed as mass retention at 200 uM measured after 5 hrs at pH 7.4 by PAMPA
- Type: ADME
- protocol.conditions: pH 7.4, 5 h
metric: R% (%)
Field format: number, assumed %, no unit text.

Could you share which R% value was measured for O=C1NC(=O)C(c2ccccc2)(c2ccccc2)N1 ?
17.4

Quick one: R% of N=C(N)Nc1ccc(CNC(=O)[C@@H](NC(=O)c2cccc(Oc3ccccc3)c2)c2ccc(OCc3ccccc3)cc2)cc1.O=C(O)C(F)(F)F ?
15.2

For N=C(N)Nc1ccc(CNC(=O)[C@@H](NC(=O)c2ccc(OC3CCCCC3)cc2)c2ccc(OCc3ccccc3)cc2)cc1.O=C(O)C(F)(F)F , what is its reported R%?
10.8

Quick check: R% of Cn1c(=O)c2c(ncn2C)n(C)c1=O ?
9.6

Given NC(=O)N1c2ccccc2C=Cc2ccccc21 [CARBAMAZEPINE] , state its recorded R%.
2.3

Entry under review: CCCCCCC(=O)N[C@H](C(=O)NCc1ccc(NC(=N)N)cc1)c1ccc(OCc2ccccc2)cc1.O=C(O)C(F)(F)F . Reported R%?
15.7

Request the reported R% associated with CCCCCCCC(=O)N[C@H](C(=O)NCc1ccc(NC(=N)N)cc1)c1ccc(OCc2ccccc2)cc1.O=C(O)C(F)(F)F
17.3

Recorded R% for N=C(N)Nc1ccc(CNC(=O)[C@@H](NC(=O)c2ccc(Oc3ccccc3)cc2)c2ccc(OCc3ccccc3)cc2)cc1.O=C(O)C(F)(F)F , please?
22.4

Would you mind telling me what R% value was observed for CCCCCC(=O)N[C@H](C(=O)NCc1ccc(NC(=N)N)cc1)c1ccc(OCc2ccccc2)cc1.O=C(O)C(F)(F)F ?
12
